biological target: Cytochrome P450 3A4 (Homo sapiens); test: Cytochrome panel assay with activity outcomes; details: recombinant CYP, pro-luciferin dealkylation, luminescence, p450-cyp3a4; series mostly up to 57.1 µM
The campaign covered roughly 16,000 compounds. About 5,100 (32%) were called active. About 25% were inconclusive and are not listed. Calls come from the whole dose curve; as a rule, active = well fitted curve in the direction sought with a large enough effect; inconclusive = small, poorly fitted or top-dose-only effect, or effect the other way; inactive = no such curve, though single readings can be large or run the other way. This is one part of the list.
Just give me one of these, please: 1 (yes) (active), 0 (no) (inactive)

# count of solved cases: 4
[[record]]
smiles_notation = "C=CCNC(=O)c1ccc2nc(-c3ccccc3)c(-c3ccccc3)nc2c1"
study_target = "Cytochrome P450 3A4 (Homo sapiens)"
classification = "1 (yes)"

[[record]]
smiles_notation = "COc1ccc(N(C)C(=O)c2ccc3nc(-c4ccccc4)c(-c4ccccc4)nc3c2)cc1"
study_target = "Cytochrome P450 3A4 (Homo sapiens)"
classification = "1 (yes)"

[[record]]
smiles_notation = "CCn1c(SCC(=O)N/N=C/C=C\\c2ccccc2[N+](=O)[O-])nnc1-c1ccccc1"
study_target = "Cytochrome P450 3A4 (Homo sapiens)"
classification = "1 (yes)"

[[record]]
smiles_notation = "Cc1cc(C)n(-c2nc3ccccc3c(=O)n2OCc2ccc(Cl)cc2)n1"
study_target = "Cytochrome P450 3A4 (Homo sapiens)"
classification = "1 (yes)"


What did the test return for `CCNC(=O)c1ccc(-n2nc(C)cc2-c2ccccc2)cc1` ?
0 (no)

Note, next up: `C[C@@H]1CCN=C(N)S1`
0 (no)
